- Test system: P. aeruginosa (PA)
- assay.overview: MIC by microdilution, 36 clinical and laboratory strains with known efflux phenotype
- Format: cell-based
- condition.set: strain 3, efflux EF+, RPMI
measurement.label: MIC
Enter the number, and then the unit.

Value lookup for MIC; key = `CC[C@H]1OC(=O)[C@H](C)[C@@H](O[C@H]2C[C@@](C)(OC)[C@@H](O)[C@H](C)O2)[C@H](C)[C@@H](O[C@@H]2O[C@H](C)C[C@H](N(C)C)[C@H]2O)[C@](C)(O)C[C@@H](C)CN(C)[C@H](C)[C@@H](O)[C@]1(C)O` 2 µg/mL

What do you get for `CC[C@H]1OC(=O)[C@H](C)[C@@H](O[C@H]2C[C@@](C)(OC)[C@@H](O)[C@H](C)O2)[C@H](C)[C@@H](O[C@@H]2O[C@H](C)C[C@H](N(C)C)[C@H]2O)[C@](C)(OC)C[C@@H](C)C(=O)[C@H](C)[C@@H](O)[C@]1(C)O` ? 16 µg/mL

What do you get for `CC[C@H]1OC(=O)[C@@](C)(F)C(=O)[C@H](C)[C@@H](O[C@@H]2O[C@H](C)C[C@H](N(C)C)[C@H]2O)[C@](C)(OC)C[C@@H](C)C(=O)[C@H](C)[C@H]2N(CCCCn3cc(-c4cccc(N)c4)nn3)C(=O)O[C@]12C` ? 1 µg/mL

What do you get for `CC[C@H]1OC(=O)[C@H](C)C(=O)[C@H](C)[C@@H](O[C@@H]2O[C@H](C)C[C@H](N(C)C)[C@H]2O)[C@](C)(OC)C[C@@H](C)C(=O)[C@H](C)[C@H]2N(CCCCn3cnc(-c4cccnc4)c3)C(=O)O[C@]12C` ? 0.25 µg/mL

What do you get for `CC[C@H]1OC(=O)[C@H](C)[C@@H](O[C@H]2C[C@@](C)(OC)[C@@H](O)[C@H](C)O2)[C@H](C)[C@@H](O[C@@H]2O[C@H](C)C[C@H](N(C)C)[C@H]2O)[C@](C)(O)C[C@@H](C)C(=O)[C@H](C)[C@@H](O)[C@]1(C)O` ? 8 µg/mL

---

- Test system: P. aeruginosa (PA)
- assay.overview: MIC by microdilution, 36 clinical and laboratory strains with known efflux phenotype
- Type: cell-based
- condition.set: strain 399, efflux AB − EF−, RPMI
measurement.label: MIC (µg/mL)
Just the number in µg/mL, nothing appended.

Value lookup for MIC; key = `CC[C@H]1OC(=O)[C@H](C)C(=O)[C@H](C)[C@@H](O[C@@H]2O[C@H](C)C[C@H](N(C)C)[C@H]2O)[C@](C)(OC)C[C@@H](C)C(=O)[C@H](C)[C@H]2N(CCCCn3cnc(-c4cccnc4)c3)C(=O)O[C@]12C` 0.25

What do you get for `CC[C@H]1OC(=O)[C@H](C)[C@@H](O[C@H]2C[C@@](C)(OC)[C@@H](O)[C@H](C)O2)[C@H](C)[C@@H](O[C@@H]2O[C@H](C)C[C@H](N(C)C)[C@H]2O)[C@](C)(O)C[C@@H](C)CN(C)[C@H](C)[C@@H](O)[C@]1(C)O` ? 2

What do you get for `CC[C@H]1OC(=O)[C@H](C)[C@@H](O[C@H]2C[C@@](C)(OC)[C@@H](O)[C@H](C)O2)[C@H](C)[C@@H](O[C@@H]2O[C@H](C)C[C@H](N(C)C)[C@H]2O)[C@](C)(OC)C[C@@H](C)C(=O)[C@H](C)[C@@H](O)[C@]1(C)O` ? 4

What do you get for `CC[C@H]1OC(=O)[C@@](C)(F)C(=O)[C@H](C)[C@@H](O[C@@H]2O[C@H](C)C[C@H](N(C)C)[C@H]2O)[C@](C)(OC)C[C@@H](C)C(=O)[C@H](C)[C@H]2N(CCCCn3cc(-c4cccc(N)c4)nn3)C(=O)O[C@]12C` ? 1

What do you get for `CC[C@H]1OC(=O)[C@H](C)[C@@H](O[C@H]2C[C@@](C)(OC)[C@@H](O)[C@H](C)O2)[C@H](C)[C@@H](O[C@@H]2O[C@H](C)C[C@H](N(C)C)[C@H]2O)[C@](C)(O)C[C@@H](C)C(=O)[C@H](C)[C@@H](O)[C@]1(C)O` ? 4
